# Tested on: MDA-N
# Measurement Notes: NCI tumour cell line growth inhibition, 48 h
Give TGI for every item shown.

Report TGI for COc1ccc(C(CC(=O)C(C)(C)CN2CCCCC2)SCCS(=O)(=O)O)cc1 (stereo unspecified) please.
96.2 µM

Now try Cc1ncc2c(=O)c3c(oc2n1)c1ccccc1n3Cc1ccccc1 .
> 100 µM

Now try COc1ccc(/C(O)=C/c2nc3cccnc3nc2/C=C(\O)c2ccc(OC)cc2)cc1 .
> 100 µM

Now try CCOC(=O)c1cnc2n(c1=N)[C@H]1CCCC[C@@H]1N2 .
> 100 µM

Now try c1ccc(-n2nc3ccc4nonc4c3n2)cc1 .
> 100 µM

Now try COc1cc(S(=O)(=O)Nc2ccc(-c3csc(N)n3)cc2)ccc1Cl .
38.5 µM

---

# System: HOP-92 NSCLC
# Measurement Notes: NCI tumour cell line growth inhibition, 48 h
Endpoint Name: GI50

Reported GI50 for HOP-92 NSCLC, given CCCCCCCCCCCCCC1=NCCN1CCO ?
3.65 µM

Now try Cc1ccc2ncnc(N(CC(C)C)CC(C)C)c2c1 .
8.36 µM

Now try COC1CCN(C(=O)c2cc(Cc3n[nH]c(=O)c4ccccc34)ccc2F)CC1 .
41.5 µM

Now try C[C@H](Nc1ncnc2nc[nH]c12)c1cc2ccc(F)cc2nc1-c1ccccn1 .
3.43 µM

Now try CCOC(=O)c1c(C)n2c(=O)cc(C)c3c(O)c(O)cc1c32 .
2.49 µM

Now try C/C(=C\CCc1ccoc1)CC/C=C(\C)CCCN1CCOCC1 .
1.43 µM

---

# System: COLO 205 colon
# Measurement Notes: NCI tumour cell line growth inhibition, 48 h
Give TGI for every item shown.
I only need the number, in µM, no unit after it.

Report TGI for [O-][n+]1ccccc1S please.
1.7

Now try c1ccc(CNCCCCNCCCNCc2ccccc2)cc1 .
27.6

Now try Nc1nc2c(s1)CCc1c-2c(Br)n(Cc2ccccc2)c1Br .
5.13

Now try C[C@]12CC/C(=N\O)C=C1CC[C@@H]1[C@@H]2CC[C@]2(C)C(=N/O)/C(=C/c3ccc([N+](=O)[O-])cc3)C[C@@H]12 .
53.3

---

Give TGI for every item shown.
# Test system: UO-31 renal
# Measurement Notes: NCI tumour cell line growth inhibition, 48 h

Reported TGI for UO-31 renal, given NS(=O)(=O)c1ccc(NC2=CC(=O)C(=O)c3ccccc32)cc1 ?
> 100 µM

Now try Cc1ccc(-c2cc(C(F)(F)F)nn2-c2ccc(S(N)(=O)=O)cc2)cc1 .
> 53.2 µM

Now try O=C1NC(=O)C2(CCCCCC2)N1 .
> 100 µM

Now try Cc1ccc(N=Nc2ccc(O)c(CN(C)C)c2)cc1 .
54.1 µM

Now try CN(C)CCNC(=O)C(C)(C)Oc1ccc(C(=O)c2ccc(Cl)cc2)cc1Cl .
22.8 µM

Now try O=C(CSc1nc2[nH]ncc2c(=O)[nH]1)c1ccc(Cl)cc1 .
> 100 µM

Now try CCN(CC)c1ccc2cc(C(=O)Nc3ccccc3)c(=N)oc2c1 .
> 100 µM

Now try O=C1Nc2c(C(F)(F)F)cccc2[C@@]1(c1ccc(O)cc1)c1ccc(OC(F)(F)F)cc1 .
0.028 µM

Now try CCC(=O)c1ccc2[nH]c3c(C)c4c(=O)cc(C)[nH]c4c(C)c3c2c1 .
> 100 µM

Now try COC(=O)C(CC(C)C)NC(=O)NC12CC3CC(CC(F)(C3)C1)C2 (stereo not drawn) .
> 100 µM

Now try CC(=O)CSc1c(-c2ccccc2)c(=O)n(-c2ccccc2)c(=S)n1-c1ccccc1 .
> 100 µM

Now try CC(=O)c1ccc(OCC(O)CO)cc1 (stereo not drawn) .
> 100 µM

Now try CCN1C(=O)N(CC)C2Nn3c(s/c(=C\c4ccccc4Br)c3=O)=NC21 (stereo not drawn) .
> 100 µM

---

# Tested on: SF-539 CNS
# Measurement Notes: NCI tumour cell line growth inhibition, 48 h
Endpoint Name: TGI

Reported TGI for SF-539 CNS, given Cc1ccc(S(=O)(=O)N2CCSCCN(S(=O)(=O)c3ccc(C)cc3)CCN(S(=O)(=O)c3ccc(C)cc3)CC2)cc1 ?
56.8 µM

Now try CC(=O)OC/C=C\Cn1nc(Br)c(=O)[nH]c1=O .
24.7 µM

Now try CNC(=O)N(CCC#N)CCCN(C(=O)NC)c1ccccc1 .
> 100 µM

Now try Nc1ccn(C2CCC(CO)O2)c(=S)n1 (stereo not given) .
> 100 µM

Now try NC(=O)c1ccc(NN=O)nc1 .
> 100 µM

Now try CCOC(=O)C(C)NC(=O)C(C)NC(=O)C(C)NC(=O)C(C)NC(=O)C(C)NC(=O)OCc1ccccc1 (stereo not given) .
> 100 µM

Now try CCOC(=O)CSc1nnc2cc(CN3CCCC3)c(-c3ccc(Cl)cc3)nn12 .
> 100 µM

Now try CO/N=C(\C(=O)N(C)n1cnnc1)c1csc(NC(c2ccccc2)(c2ccccc2)c2ccccc2)n1 .
> 10 µM

Now try COc1ccc2cc(C(=O)O)ccc2c1OC .
> 100 µM

Now try Cc1ccc(-c2cc3c(SCC(=O)Nc4cc(C(F)(F)F)ccc4Cl)nccn3n2)cc1 .
> 100 µM

Now try CC(=O)c1cc(C(=O)c2ccc3c(c2)Sc2ccccc2N3)c2c(C)cc(C)cn12 .
0.535 µM

Now try Nc1cc(N2CCCC2)nc(=O)n1-c1ccccc1 .
> 100 µM

Now try C/C(=C\CCc1ccoc1)CC/C=C(\C)CCCN1CCOCC1 .
19.7 µM

Now try Clc1cc(Cl)cc(C2ON=C(c3ccccc3)N2C23CC4CC(CC(C4)C2)C3)c1 (stereo not given) .
> 10 µM

Now try Cc1ccccc1-n1ncc(C(=O)c2ccccc2)c1N .
> 25 µM

Now try C=C[C@@H]1C[C@]2(C(=O)OC)Cc3nc4ccccc4nc3CC(C(=O)OC)=C2O1 .
> 100 µM

Now try Cc1cc2c(cc1C)[n+](=O)c(C(=O)C/C(=N/OCCCc1ccccc1)C(=O)Nc1cc(Cl)ccc1Cl)c(C)n2[O-] .
> 100 µM

Now try CC(=O)Nc1ccc(-c2nc3ccccc3s2)cc1I .
55.6 µM

Now try COc1c(C(=O)c2ccc([N+](=O)[O-])cc2)cc(C(C)(C)C)cc1C(C)(C)C .
> 100 µM

Now try CC(C)NC(=O)OCc1c(COC(=O)NC(C)C)c(-c2cc[n+](COC(=O)C(C)(C)C)cc2)n2c1CCC2 .
> 100 µM

Now try O=C(c1ccccc1)N1C2CCC1C(C(F)(F)F)=C2C(F)(F)F .
> 100 µM

Now try Cl.Fc1c[c-]c(-c2ccccn2)c(F)c1.[Pt].c1ccc(P(c2ccccc2)C([PH+](c2ccccc2)c2ccccc2)[PH+](c2ccccc2)c2ccccc2)cc1 .
11.3 µM

Now try COC(=O)[C@]12CC[C@@H](C)[C@H](C)[C@@H]1C1=CC[C@@H]3[C@@]4(C)C(C=O)=C[C@@](C)(COC(C)=O)C4=CC[C@@]3(C)[C@]1(C)CC2 .
26 µM

Now try O=C(O)CCc1ccc2c(c1)C(=O)CC2 .
> 100 µM

Now try CC(=O)NC(c1nc2cc(C)c(C)cc2[nH]1)c1nc2cc(C)c(C)cc2[nH]1 .
30.5 µM

Now try CC1CC[C@@]2(OC1)OC1CC3C4CCC5C[C@@H](OC6OC(CO)C(OC7OC(CO)C(O)C(OC8OC(CO)C(O)C(OC9OC(CO)C(O)C(O)C9O)C8O)C7OC7OC(CO)C(O)C(O)C7O)C(O)C6O)[C@H](O)C[C@]5(C)C4CC[C@]3(C)C1[C@@H]2C (stereo not given in full) .
> 80.5 µM

Now try Clc1ccc2c(c1)N(c1ncnc3ccc(-c4cnc5[nH]ccc5c4)cc13)CC2 .
48.7 µM

Now try Cc1ccc(NC(=O)C(=O)C(C#N)c2nc(-c3ccc(-c4ccccc4)cc3)cs2)c(C)c1 (stereo not given) .
> 100 µM

Now try c1cc2[nH]ncc2cc1-c1nc2ccc3[nH]ncc3c2c2c1CCCC2 .
5.4 µM

Now try NNC(=O)CNC(=O)c1ccc(Cl)cc1Cl .
> 100 µM

Now try COc1ccc2c(CN3CCC(C(=O)O)CC3)cc3cc4c(cc3c2c1)OCO4 .
14 µM

Now try Cc1nnc2sc(NN)nn12 .
> 100 µM

Now try N#Cc1c(N)[nH]c(=S)c(C#N)c1-c1ccccc1 .
> 100 µM

Now try O=CNc1ncn[nH]1 .
> 100 µM

Now try O=C(CN(/C=C/C(=O)C(F)(F)F)c1ccc(Cl)cc1)c1ccccc1 .
27.8 µM

Now try NC(=S)N/N=C1\NC(=O)/C(=C/c2ccc3c(c2)OCO3)S1 .
> 100 µM

Now try COc1ccc(OCc2ccc3nc(-c4ccccc4)c(Cl)nc3c2)cc1 .
42.3 µM

Now try CS(=O)(=O)Nc1ccc(-c2cc(-c3ccccc3)cc(C(N)=O)c2N)cc1 .
> 25 µM

Now try Clc1cccc(Cl)c1C1CSc2ccccc2N=C1c1ccccc1 (stereo not given) .
18.9 µM

Now try COc1cc2nc(SCC(=O)Nc3cc(OC)c(OC)c(OC)c3)n(Cc3ccccc3)c(=O)c2cc1OC .
5.78 µM
